assay-method-text: qHTS Assay for Enhancers of SMN2 Splice Variant Expression; note: nearly all actives have a fitted effect of over 55% in size
condition-parameters: HEK293 SMN2-luciferase splicing reporter, luminescence, 30-36 h; series mostly up to 46.1 µM
From the text: NIH Chemical Genomics Center [NCGC] NIH Molecular Libraries Probe Production centers Network [MLPCN] MLPCN Grant: R03 MH084179-01 Assay Submitter (PI): Elliot Androphy NCGC Assay Overview: Spinal muscular atrophy (SMA) is caused by insufficient levels of the survival motor neuron protein SMN. The SMN locus on chromosome 5q13 contains two inverted copies of SMN called SMN1 and SMN2 which are 99% identical at the amino acid level. […]
Hit rate of the full screen: of about 210,000 compounds, about 5,900 (2.8%) were called active. Inconclusive results (about 5%) are left out. Calls come from the whole dose curve; as a rule, active = well fitted activation curve with a large enough effect; inconclusive = small, poorly fitted or top-dose-only effect; inactive = no such curve, though single readings can be large or run the other way. What follows is part of a selection rich in actives, with near analogues and random picks from the rest.
Please state which outcome applies, choosing from t for active, f for inactive

Example entries and their recorded answers appear below.
{"compound": "CCOc1ccc2nc(SC(CC)C(=O)Nc3cc(C)on3)sc2c1 (configuration not stated)", "class": "f"}
{"compound": "O=c1oc2ccccc2cc1-c1csc(Nc2ccc(O)cc2)n1", "class": "t"}
{"compound": "COc1ccc(N2CCN(C(=O)CSc3nc4cc(OC)c(OC)cc4cc3C#N)CC2)cc1", "class": "f"}
{"compound": "Cc1cc(C)cc(NS(=O)(=O)c2ccc3[nH]cc(C(=O)N4CCCCC4)c(=O)c3c2)c1", "class": "f"}
{"compound": "CCOc1ccc2nc(Nc3nc4ccc(NC(C)=O)cc4s3)sc2c1", "class": "f"}

Status in this test for Cc1csc(SCC(=O)Nc2sccc2C#N)n1 ?
t

Status in this test for Cc1csc2nc(COc3ccc(NC(=O)COc4ccccc4)cc3)cc(=O)n12 ?
f

Status in this test for COc1ccc(NC(=O)CSc2nc(C)cs2)cc1 ?
f

Status in this test for Cc1nonc1NC(=O)CSc1nc2ccccc2cc1C#N ?
f

Status in this test for COC(=O)CC1Oc2ccccc2-n2cc(-c3ccccc3)nc21 (configuration not stated) ?
f

Status in this test for Cc1ccc(Cl)cc1NC(=O)C1CCCN(c2cnccn2)C1 (configuration not stated) ?
f

Status in this test for O=C(CSc1cccc[n+]1[O-])c1ccc(-c2ccccc2)cc1 ?
t

Status in this test for Cc1nn(C)cc1C(=O)NNC(=S)Nc1ccc(Cl)cc1 ?
f

Status in this test for COc1cccc(Cn2c(SCc3ccc(C(=O)N4CCC(C)CC4)cc3)nc3ccncc32)c1 ?
f
